System: broad leaf weeds (Lindernia pyxidaria and Monochoria vaginalis)
Experiment: Test Example 1: herbicidal effect test by treatment of rice paddy soil (immediately after seeding)
Assay type: in vivo
Settings: Monochoria vaginalis, 120 g/10a active ingredient, dry weight vs untreated area, 14 days after treatment
measurement name: Herbicidal rate (%) Monochoria vaginalis
Write the number in % without appending the unit.

compound	Herbicidal rate (%) Monochoria vaginalis
CC(=O)N(c1ccccc1Cc1c(C)n(C(C)c2ccccc2)oc1=O)S(=O)(=O)C(F)(F)F (centres unmarked)	90
Cc1c(Cc2ccccc2N(S(=O)(=O)C(F)(F)F)S(=O)(=O)C(F)(F)F)c(=O)on1C(C)c1ccccc1 (centres unmarked)	100
Cc1c(Cc2ccccc2NS(=O)(=O)C(F)(F)F)c(=O)on1C	100

What value of Herbicidal rate (%) Monochoria vaginalis has been recorded for this entry: Cc1c(Cc2cc(Cl)ccc2NS(=O)(=O)C(F)(F)F)c(=O)on1C(C)C
100

What value of Herbicidal rate (%) Monochoria vaginalis has been recorded for this entry: CC(=O)N(c1ccccc1Cc1c(C)n(CC(C)(C)C)oc1=O)S(=O)(=O)C(F)(F)F
90

What value of Herbicidal rate (%) Monochoria vaginalis has been recorded for this entry: CCCC(C)n1oc(=O)c(Cc2ccccc2N(C(=O)CC(C)C)S(=O)(=O)C(F)(F)F)c1C (centres unmarked)
60

What value of Herbicidal rate (%) Monochoria vaginalis has been recorded for this entry: Cc1c(Cc2ccccc2N(C(=O)Cc2ccccc2)S(=O)(=O)C(F)(F)F)c(=O)on1C(C)(C)C
90

What value of Herbicidal rate (%) Monochoria vaginalis has been recorded for this entry: Cc1c(Cc2ccccc2N(S(=O)(=O)C(F)(F)F)S(=O)(=O)C(F)(F)F)c(=O)on1C1CCCCC1
80

What value of Herbicidal rate (%) Monochoria vaginalis has been recorded for this entry: COC(=O)N(c1ccccc1Cc1c(C)n(C(C)(C)C)oc1=O)S(=O)(=O)C(F)(F)F
90

What value of Herbicidal rate (%) Monochoria vaginalis has been recorded for this entry: CSCCCn1oc(=O)c(Cc2ccccc2NS(=O)(=O)C(F)(F)F)c1C
80

What value of Herbicidal rate (%) Monochoria vaginalis has been recorded for this entry: Cc1c(Cc2ccccc2N(S(=O)(=O)C(F)(F)F)S(=O)(=O)C(F)(F)F)c(=O)on1Cc1ccc(F)c(Cl)c1
60

What value of Herbicidal rate (%) Monochoria vaginalis has been recorded for this entry: CCC(C)Cn1oc(=O)c(Cc2ccccc2N(C(C)=O)S(=O)(=O)C(F)(F)F)c1C (centres unmarked)
70

What value of Herbicidal rate (%) Monochoria vaginalis has been recorded for this entry: CCC(=O)N(c1ccccc1Cc1c(C)n(CCSC)oc1=O)S(=O)(=O)C(F)(F)F
90

What value of Herbicidal rate (%) Monochoria vaginalis has been recorded for this entry: CCN(CC)C(=O)n1oc(=O)c(Cc2ccccc2NS(=O)(=O)C(F)(F)F)c1C
80

====

Each record here notes measured Herbicidal rate (%) Echinochloa crus-galli.
Test system: Echinochloa crus-galli
Assay: Test Example 2: herbicidal effect test by treatment during growing period in paddy rice cultivation (seven days after seeding)
Format: in vivo
Conditions: 120 g/10a active ingredient, assessed 14 days after treatment, dry weight vs untreated area
Write the number in % without appending the unit.

Consider the reported Herbicidal rate (%) Echinochloa crus-galli for these molecules:
molecule	readout unit	obs value
COCC(C)n1oc(=O)c(Cc2ccccc2N(C(=O)OCC(C)C)S(=O)(=O)C(F)(F)F)c1C (stereo not shown)	%	90
Cc1c(Cc2ccccc2NS(=O)(=O)C(F)(F)F)c(=O)on1Cc1cccs1	%	60
Cc1c(Cc2ccc(Cl)cc2NS(=O)(=O)C(F)(F)F)c(=O)on1C(C)C	%	40
CCCCC(C)n1oc(=O)c(Cc2ccccc2NS(=O)(=O)C(F)(F)F)c1C (stereo not shown)	%	90
Cc1c(Cc2ccccc2N(S(=O)(=O)C(F)(F)F)S(=O)(=O)C(F)(F)F)c(=O)on1Cc1ccc(C#N)cc1	%	0
Cc1c(Cc2ccccc2N(S(=O)(=O)C(F)(F)F)S(=O)(=O)C(F)(F)F)c(=O)on1C(c1ccccc1)C(C)C (stereo not shown)	%	100

Reported Herbicidal rate (%) Echinochloa crus-galli for Echinochloa crus-galli, given CCC(C)Cn1oc(=O)c(Cc2ccccc2NS(=O)(=O)C(F)(F)F)c1C (stereo not shown) ?
90

====

Tested on: Amaranthus viridis
Assay: Test Example 4: herbicidal effect test by treatment of leave and stem in dry field farming (seven days after seeding)
Format: in vivo
Conditions: 120 g/10a active ingredient; emulsion sprayed seven days after seeding; evaluated 14 days after treatment
Each record here notes measured herbicidal effect (herbicidal rate), Amaranthus viridis.
Write the number in % without appending the unit.

Consider the reported herbicidal effect (herbicidal rate), Amaranthus viridis for these molecules:
molecule	measured on	obs value
Cc1c(Cc2ccccc2NS(=O)(=O)C(F)(F)F)c(=O)on1CCCl	Amaranthus viridis	0
CCC(CC)n1oc(=O)c(Cc2ccccc2NS(=O)(=O)C(F)(F)F)c1C	Amaranthus viridis	90
COCC(C)n1oc(=O)c(Cc2ccccc2N(C(=O)C2CC2)S(=O)(=O)C(F)(F)F)c1C (centres unmarked)	Amaranthus viridis	40
CCC(=O)N(c1ccccc1Cc1c(C)n(C(C)(C)C)oc1=O)S(=O)(=O)C(F)(F)F	Amaranthus viridis	40
Cc1c(Cc2ccccc2N(C(=O)C(C)C)S(=O)(=O)C(F)(F)F)c(=O)on1C(C)(C)C	Amaranthus viridis	40
COCC(C)n1oc(=O)c(Cc2ccccc2N(C(=O)OC)S(=O)(=O)C(F)(F)F)c1C (centres unmarked)	Amaranthus viridis	40
CCC(C)n1oc(=O)c(Cc2ccccc2N(C(C)=O)S(=O)(=O)C(F)(F)F)c1C (centres unmarked)	Amaranthus viridis	40

What value of herbicidal effect (herbicidal rate), Amaranthus viridis has been recorded for this entry: Cc1ccc(Cn2oc(=O)c(Cc3ccccc3NS(=O)(=O)C(F)(F)F)c2C)cc1
80

====

Tested on: Scirpus juncoides
Assay: Test Example 2: herbicidal effect test by treatment during growing period in paddy rice cultivation (seven days after seeding)
Assay type: in vivo
Conditions: 120 g/10a active ingredient, assessed 14 days after treatment, dry weight vs untreated area
measurement name: Herbicidal rate (%) Scirpus juncoides
Write the number in % without appending the unit.

Consider the reported Herbicidal rate (%) Scirpus juncoides for these molecules:
molecule	measured on	measurement name	obs value
Cc1c(Cc2ccccc2NS(=O)(=O)C(F)(F)F)c(=O)on1Cc1ccc(F)cc1F	Scirpus juncoides	Herbicidal rate (%) Scirpus juncoides	80
CCn1oc(=O)c(Cc2ccccc2N(S(=O)(=O)C(F)(F)F)S(=O)(=O)C(F)(F)F)c1C	Scirpus juncoides	Herbicidal rate (%) Scirpus juncoides	70
COCC(C)n1oc(=O)c(Cc2ccccc2N(C(C)=O)S(=O)(=O)C(F)(F)F)c1C (centres unmarked)	Scirpus juncoides	Herbicidal rate (%) Scirpus juncoides	90
Cc1c(Cc2ccccc2NS(=O)(=O)C(F)(F)F)c(=O)on1CC1CCCCC1	Scirpus juncoides	Herbicidal rate (%) Scirpus juncoides	90
COCC(C)n1oc(=O)c(Cc2ccccc2N(S(C)(=O)=O)S(=O)(=O)C(F)(F)F)c1C (centres unmarked)	Scirpus juncoides	Herbicidal rate (%) Scirpus juncoides	90
Cc1c(Cc2ccccc2NS(=O)(=O)C(F)(F)F)c(=O)on1CCOCc1ccccc1	Scirpus juncoides	Herbicidal rate (%) Scirpus juncoides	80
CCCCC(CC)Cn1oc(=O)c(Cc2ccccc2NS(=O)(=O)C(F)(F)F)c1C (centres unmarked)	Scirpus juncoides	Herbicidal rate (%) Scirpus juncoides	80

What value of Herbicidal rate (%) Scirpus juncoides has been recorded for this entry: CCC(=O)N(c1ccccc1Cc1c(C)n(C(C)(C)C)oc1=O)S(=O)(=O)C(F)(F)F
90

====

Test system: broad leaf weeds (Lindernia pyxidaria and Monochoria vaginalis)
Assay: Test Example 1: herbicidal effect test by treatment of rice paddy soil (immediately after seeding)
Format: in vivo
Conditions: Monochoria vaginalis, 120 g/10a active ingredient, dry weight vs untreated area, 14 days after treatment
Each record here notes measured Herbicidal rate (%) Monochoria vaginalis.
State the value with its unit after it.

molecule	Herbicidal rate (%) Monochoria vaginalis
CCNC(=O)N(c1ccccc1Cc1c(C)n(C(C)c2ccccc2)oc1=O)S(=O)(=O)C(F)(F)F (stereo not drawn)	90%
CCC(C)Cn1oc(=O)c(Cc2ccccc2N(C(=O)OCc2ccccc2)S(=O)(=O)C(F)(F)F)c1C (single isomer, unassigned) [1-789 (TLC bottom)]	90%
Cc1c(Cc2ccccc2N(C(=O)c2ccccc2)S(=O)(=O)C(F)(F)F)c(=O)on1C(C)(C)C	90%
Cc1c(Cc2ccccc2NS(=O)(=O)C(F)(F)F)c(=O)on1Cc1ccsc1	90%
Cc1c(Cc2ccccc2NS(=O)(=O)C(F)(F)F)c(=O)on1CC(C)c1ccccc1 (stereo not drawn)	80%

What value of Herbicidal rate (%) Monochoria vaginalis has been recorded for this entry: Cc1c(Cc2ccccc2NS(=O)(=O)C(F)(F)F)c(=O)on1C(C)c1ccccc1 (stereo not drawn)
100%

What value of Herbicidal rate (%) Monochoria vaginalis has been recorded for this entry: COCCOC(=O)N(c1ccccc1Cc1c(C)n(C(C)c2ccccc2)oc1=O)S(=O)(=O)C(F)(F)F (stereo not drawn)
90%

What value of Herbicidal rate (%) Monochoria vaginalis has been recorded for this entry: CCC(C)n1oc(=O)c(Cc2ccccc2N(S(=O)(=O)CC)S(=O)(=O)C(F)(F)F)c1C (stereo not drawn)
90%

What value of Herbicidal rate (%) Monochoria vaginalis has been recorded for this entry: Cc1c(Cc2ccccc2N(S(=O)(=O)C(F)(F)F)S(=O)(=O)C(F)(F)F)c(=O)on1C(C)c1ccc(OC(F)(F)F)cc1 (stereo not drawn)
60%

What value of Herbicidal rate (%) Monochoria vaginalis has been recorded for this entry: CCn1oc(=O)c(Cc2ccccc2NS(=O)(=O)C(F)(F)F)c1C
100%

What value of Herbicidal rate (%) Monochoria vaginalis has been recorded for this entry: Cc1c(Cc2ccccc2N(S(=O)(=O)C(F)(F)F)S(=O)(=O)C(F)(F)F)c(=O)on1CCOCC(C)C
90%
